Taken from PubChem BioAssay.

measurement-description: inhibitors of TNFa-induced NFkB p65 translocation, primary screen, imaging, HUVEC, MLSMR starter and 10KST1 sets (AID 438);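 also: compound added about 3h40 before a 20 min TNFalpha stimulation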
experimental-parameters: HUVEC TNFa-induced p65 nuclear translocation; measured here: nuclei count (cytotoxicity indicator), at 2.08 µM
We use 600 as the dividing line for cell count: on or above the line is Satisfied, below is Not satisfied.

Please review the entries below; each comes with its answer.
compound=CC(=O)N1CCc2cc(S(=O)(=O)CCC(=O)Nc3cccc(F)c3)ccc21 class_name="Not satisfied"
compound="Cc1ccc(CS(=O)(=O)CCC(=O)NCC2CCCO2)cc1 (centres undefined)" class_name="Not satisfied"
compound=Cn1c(=O)c2c(nc(NCc3ccco3)n2C/C=C/c2ccccc2)n(C)c1=O class_name="Not satisfied"
compound="CC(=O)Oc1ccc(CCC(C)OC(C)=O)cc1 (centres undefined)" class_name=Satisfied
compound=CCCCSc1nc(CCC)cc(=O)[nH]1 class_name="Not satisfied"

## Input Please indicate if the recorded cell count for `O=C(CSc1nnnn1C1CCCC1)N1CCN(C(=O)c2ccco2)CC1` meets or exceeds 600.
## Output Not satisfied

## Input Please tell me: is the compound `CCCCOc1ccccc1NC(=O)c1ccco1` at or over 600 in terms of cell count?
## Output Not satisfied

###

Give measured inhibition for each item. Keep answers brief.
measurement-description: endothelial E-selectin expression blockers – imaging, HUVEC, immunofluorescence, MLSMR starter and 10KST1 sets, primary screen (AID 487);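 also: signal is fraction of cell area covered by stained E-selectin grains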
experimental-parameters: HUVEC TNFalpha-induced E-selectin immunofluorescence imaging, at 2 µM; stronger effect = higher value
Answers are plain numbers, in %.

compound=Cc1ccccc1NS(=O)(=O)c1cc(C(=O)N2CCCC2)ccc1C val=9.5
compound=Cc1cc(NC(=O)CS(=O)(=O)c2cn(Cc3cccc(F)c3)c3ccccc23)no1 val=-94.1
compound=CC(=O)Nc1ccc2nc(-c3cccnc3)[nH]c2c1 val=-9.3
compound=Cc1[nH]nc(N=CC2=C(O)CC(C)(C)CC2=O)c1-c1ccc(Cl)cc1 val=-27.4

Value sought for every listed compound: inhibition.
1. c1ccc(Cn2nnc3c(N4CCC5(CC4)OCCO5)ncnc32)cc1
2. Cc1cc(C(=O)CSc2nc3ccccc3n2CCC#N)c(C)n1Cc1cccs1
3. O=C(CCCn1c(=S)[nH]c2cc3c(cc2c1=O)OCO3)N1CCN(c2ccccc2F)CC1
4. COc1ccc(-n2c(Cc3cccn3C)nnc2SCC(=O)Nc2cccc(Cl)c2)cc1
5. CC1(C(=O)NC2CCCCC2)CCC(=O)N1Cc1cccs1 (centres undefined)

## Output
1. -346
2. -412
3. 0.1
4. 1.8
5. -78.3

Dear reader, for each entry below, please note its inhibition.
1. O=C(Nc1cccc2ccccc12)c1ccc(Br)o1
2. COc1ccc(CN2C(=O)c3ccccc3C2C(=O)NC2CCCC2)c(OC)c1 (centres undefined)
3. CN(C)C(=O)CN(C)S(=O)(=O)c1ccc(Cl)cc1
4. NC(=O)C1(N2CCCCC2)CCN(C(=O)Nc2ccccc2C(F)(F)F)CC1
5. Cc1ccc(Nc2cc(C)nc3ncnn23)c(Cl)c1
6. CCCNC(=O)C1CCN(S(=O)(=O)c2ccc3nc4c(c(C(=O)O)c3c2)CCCCC4)CC1
7. COc1ccc(S(=O)(=O)Nc2cccc(C)n2)c2ccccc12
8. O=C(COc1nnc2ccccn12)N1CCN(S(=O)(=O)c2ccccc2)CC1

## Output
1: 18.2; 2: -53.3; 3: -2.4; 4: -133; 5: -65.9; 6: -26.6; 7: 41.3; 8: -18.1

Fill in inhibition for each of the 2 compounds listed.
1. CC(C)(C)NC(=O)COC(=O)c1snc(C(=O)NC2CCCCC2)c1N
2. COc1ccc(CN2CC(C(=O)NCCCOC(C)C)CC2=O)cc1 (centres undefined)

## Output
-55.6
-63.4
